# experiment_description: Cytotoxicity against mouse RAW264.7 cells incubated for 48 hrs by MTT assay
# Type: toxicity, cell-based

{"columns": ["compound", "CC50 at 48 h / µM"],
 "data": [
  ["CC(C)C1S/C(=N/N=C/c2ccccn2)NC1=O (centres undefined)", 256],
  ["C/C(=N\\NC(N)=S)c1ccncc1", 464],
  ["C/C(=N\\N=C1/SCC(=O)N1C)c1ccccn1", 291],
  ["CN1C(=O)C(C)(C)S/C1=N/N=C/c1ccccn1", 387],
  ["CC(C)C1S/C(=N/N=C/c2ccccn2)N(C)C1=O (centres undefined)", 267],
  ["CN1C(=O)CS/C1=N/N=C/c1ccccn1", 274],
  ["C/C(=N\\NC(N)=S)c1ccccn1", 16.1],
  ["C/C(=N\\N=C1/NC(=O)C(C(C)C)S1)c1ccncc1 (centres undefined)", 179],
  ["C/C(=N\\N=C1/SCC(=O)N1c1ccccc1)c1ccncc1", 155],
  ["CC(C)C1S/C(=N/N=C/c2ccccn2)N(c2ccccc2)C1=O (centres undefined)", 47.4],
  ["C/C(=N\\N=C1\\SC(C(C)C)C(=O)N1C)c1ccncc1 (centres undefined)", 356],
  ["CNC(=S)N/N=C(\\C)c1ccccn1", 7.49],
  ["CNC(=S)N/N=C/c1ccccn1", 55.1],
  ["CC1(C)S/C(=N/N=C/c2ccccn2)NC1=O", 449],
  ["O=C1CS/C(=N/N=C/c2ccccn2)N1c1ccccc1", 61.9],
  ["C/C(=N\\N=C1\\SC(C(C)C)C(=O)N1c1ccccc1)c1ccncc1 (centres undefined)", 296],
  ["C/C(=N\\NC(=S)Nc1ccccc1)c1ccncc1", 740],
  ["CNC(=S)N/N=C(\\C)c1ccncc1", 567],
  ["C/C(=N\\N=C1/SCC(=O)N1C)c1ccncc1", 426],
  ["C/C(=N\\N=C1\\NC(=O)CS1)c1ccccn1", 134],
  ["O=C1CS/C(=N/N=C/c2ccccn2)N1", 486],
  ["C/C(=N\\N=C1/NC(=O)CS1)c1ccncc1", 276],
  ["C/C(=N\\N=C1/SCC(=O)N1c1ccccc1)c1ccccn1", 223],
  ["O=C(Cn1ccnc1[N+](=O)[O-])NCc1ccccc1", 124]
]}

###

# Test system: Trypanosoma cruzi
# experiment_description: Antitrypanosomal activity against Trypanosoma cruzi Tulahuen amastigotes infected in mouse L929 cells assessed as parasite growth inhibition measured after 7 days by CPRG/Nonidet based assay
# Assay type: functional, organism-based
# assay_setup: L929, 168 h
pIC50: −log10 of the molar value.
readout_label: pIC50

{"columns": ["compound", "readout_label", "measurement"],
 "data": [
  ["C/C(=N\\N=C1\\SC(C(C)C)C(=O)N1C)c1ccncc1 (centres undefined)", "pIC50", 4.16],
  ["CNC(=S)N/N=C(\\C)c1ccncc1", "pIC50", 3.63],
  ["CNC(=S)N/N=C/c1ccccn1", "pIC50", 5.25],
  ["O=C1CS/C(=N/N=C/c2ccccn2)N1c1ccccc1", "pIC50", 5.42],
  ["C/C(=N\\NC(N)=S)c1ccncc1", "pIC50", 3.62],
  ["N/C(S)=N/N=C/c1ccccn1", "pIC50", 5.80],
  ["C/C(=N\\N=C1\\NC(=O)CS1)c1ccccn1", "pIC50", 5.04],
  ["C/C(=N\\N=C1/SCC(=O)N1c1ccccc1)c1ccncc1", "pIC50", 6.21],
  ["O=C(Cn1ccnc1[N+](=O)[O-])NCc1ccccc1", "pIC50", 5.20],
  ["CN1C(=O)C(C)(C)S/C1=N/N=C/c1ccccn1", "pIC50", 6.09],
  ["C/C(=N\\N=C1/NC(=O)C(C(C)C)S1)c1ccncc1 (centres undefined)", "pIC50", 4.14],
  ["S=C(N/N=C/c1ccccn1)Nc1ccccc1", "pIC50", 6.72],
  ["CN1C(=O)CS/C1=N/N=C/c1ccccn1", "pIC50", 5.24],
  ["CC1(C)S/C(=N/N=C/c2ccccn2)N(c2ccccc2)C1=O", "pIC50", 6.19]
]}
